Recorded activity coefficient, one value per entry.
- Assay Overview: activity coefficient (dimensionless); of the first substance listed, at infinite dilution; xn = mol fraction of the nth substance listed
- Experimental Context: 343.1 K; 101.3 kPa; Liquid; Chromatography; x1 = 0
Give the figure by itself; no unit, no explanation.

[
  {
    "Compound": "C=CCCCCCC [oct-1-ene] + CCn1cc[n+](C)c1.N#C[B-](C#N)(C#N)C#N",
    "activity coefficient": 19
  }
]

Just so you know, measured activity coefficient for C#CCCCCC [1-heptyne] + CCn1cc[n+](C)c1.N#C[B-](C#N)(C#N)C#N came out at 5.59

Looking up Cc1ccccc1C [1,2-dimethylbenzene] + CCn1cc[n+](C)c1.N#C[B-](C#N)(C#N)C#N , I found its activity coefficient recorded as 2.54

So for Cc1cccc(C)c1 [1,3-dimethylbenzene] + CCn1cc[n+](C)c1.N#C[B-](C#N)(C#N)C#N , the logged activity coefficient turned out to be 2.99

---

- Assay Overview: activity coefficient (dimensionless); of the first substance listed, at infinite dilution; xn = mol fraction of the nth substance listed
- Experimental Context: 303.6 K; 101.3 kPa; Liquid; Chromatography; x1 = 0
Classification field: yes = activity coefficient at or over 2; no = activity coefficient under 2.

[
  {
    "Compound": "c1ccccc1 [benzene] + CCn1cc[n+](C)c1.N#C[B-](C#N)(C#N)C#N",
    "Category": "no"
  }
]

Q: # check: activity coefficient of CCc1ccccc1 [ethylbenzene] + CCn1cc[n+](C)c1.N#C[B-](C#N)(C#N)C#N is greater than or equal to 2
Result: yes

Q: Check the entry Cc1ccccc1C [1,2-dimethylbenzene] + CCn1cc[n+](C)c1.N#C[B-](C#N)(C#N)C#N : does activity coefficient equal or exceed 2?
Result: yes

Q: Could you tell me if the measured activity coefficient of Cc1ccccc1 [toluene] + CCn1cc[n+](C)c1.N#C[B-](C#N)(C#N)C#N reaches 2 or more?
Result: no

Q: Decide: activity coefficient of Cc1cccc(C)c1 [1,3-dimethylbenzene] + CCn1cc[n+](C)c1.N#C[B-](C#N)(C#N)C#N >= 2?
Result: yes

---

- Assay Overview: activity coefficient (dimensionless); of the first substance listed, at infinite dilution; xn = mol fraction of the nth substance listed
- Experimental Context: 313.2 K; 101.3 kPa; Liquid; Chromatography; x1 = 0
Readout: activity coefficient

[
  {
    "Molecule": "C=CCCCC [hex-1-ene] + CCn1cc[n+](C)c1.N#C[B-](C#N)(C#N)C#N",
    "Readout Value": 9.74
  },
  {
    "Molecule": "C=CCCCCCCCC [1-decene] + CCn1cc[n+](C)c1.N#C[B-](C#N)(C#N)C#N",
    "Readout Value": 56
  },
  {
    "Molecule": "Cc1ccc(C)cc1 [1,4-dimethylbenzene] + CCn1cc[n+](C)c1.N#C[B-](C#N)(C#N)C#N",
    "Readout Value": 2.85
  },
  {
    "Molecule": "Cc1cccc(C)c1 [1,3-dimethylbenzene] + CCn1cc[n+](C)c1.N#C[B-](C#N)(C#N)C#N",
    "Readout Value": 2.99
  }
]

Measured activity coefficient, C=CCCCCCC [oct-1-ene] + CCn1cc[n+](C)c1.N#C[B-](C#N)(C#N)C#N : 26.8

Noted for Cc1ccccc1 [toluene] + CCn1cc[n+](C)c1.N#C[B-](C#N)(C#N)C#N : its activity coefficient reads 1.92

For CCc1ccccc1 [ethylbenzene] + CCn1cc[n+](C)c1.N#C[B-](C#N)(C#N)C#N the molecule record lists activity coefficient as 3

---

- Assay Overview: activity coefficient (dimensionless); of the first substance listed, at infinite dilution; xn = mol fraction of the nth substance listed
- Experimental Context: 313.3 K; 101.3 kPa; Liquid; Chromatography; x1 = 0
Here the recorded activity coefficient is given for each entry.
Note: the reply should be a number with no unit written.

These recorded examples may help you get a feel for the data.
[
  {
    "Compound": "c1ccccc1 [benzene] + CCn1cc[n+](C)c1.N#C[B-](C#N)(C#N)C#N",
    "Readout": "activity coefficient",
    "Readout Value": 1.31
  },
  {
    "Compound": "C#CCCC [1-pentyne] + CCn1cc[n+](C)c1.N#C[B-](C#N)(C#N)C#N",
    "Readout": "activity coefficient",
    "Readout Value": 2.61
  },
  {
    "Compound": "CO [methanol] + CCn1cc[n+](C)c1.N#C[B-](C#N)(C#N)C#N",
    "Readout": "activity coefficient",
    "Readout Value": 1.05
  }
]

For the next question, use this compound.
// recorded activity coefficient for CCO [ethanol] + CCn1cc[n+](C)c1.N#C[B-](C#N)(C#N)C#N : 1.5

---

- Assay Overview: activity coefficient (dimensionless); of the first substance listed, at infinite dilution; xn = mol fraction of the nth substance listed
- Experimental Context: 323.1 K; 101.3 kPa; Liquid; Chromatography; x1 = 0
Readout: activity coefficient
// return just the number, without any unit appended

Worked examples, 6 compounds total:
[
  {
    "Compound": "C1CCCCC1 [cyclohexane] + CCn1cc[n+](C)c1.N#C[B-](C#N)(C#N)C#N",
    "Readout Value": 11.2
  },
  {
    "Compound": "CCc1ccccc1 [ethylbenzene] + CCn1cc[n+](C)c1.N#C[B-](C#N)(C#N)C#N",
    "Readout Value": 3.05
  },
  {
    "Compound": "CCCCCCCC [octane] + CCn1cc[n+](C)c1.N#C[B-](C#N)(C#N)C#N",
    "Readout Value": 46.7
  },
  {
    "Compound": "CCCCCC [hexane] + CCn1cc[n+](C)c1.N#C[B-](C#N)(C#N)C#N",
    "Readout Value": 15.1
  },
  {
    "Compound": "Cc1ccccc1 [toluene] + CCn1cc[n+](C)c1.N#C[B-](C#N)(C#N)C#N",
    "Readout Value": 1.98
  },
  {
    "Compound": "CC1CCCCC1 [methylcyclohexane] + CCn1cc[n+](C)c1.N#C[B-](C#N)(C#N)C#N",
    "Readout Value": 16.9
  }
]

Looking up CCCCCCC [heptane] + CCn1cc[n+](C)c1.N#C[B-](C#N)(C#N)C#N , I found its activity coefficient recorded as 28.1

Kindly note the recorded activity coefficient for CCCCC [pentane] + CCn1cc[n+](C)c1.N#C[B-](C#N)(C#N)C#N , which is 7.05

Per the record, CCCCCCCCC [nonane] + CCn1cc[n+](C)c1.N#C[B-](C#N)(C#N)C#N has activity coefficient of 70.8

---

- Assay Overview: activity coefficient (dimensionless); of the first substance listed, at infinite dilution; xn = mol fraction of the nth substance listed
- Experimental Context: 323.3 K; 101.3 kPa; Liquid; Chromatography; x1 = 0
# Lookup of reported activity coefficient keyed by entry
Hey, just send me the number, nothing else.

Here are 5 compounds together with their reported answers.
[
  {
    "Compound": "CO [methanol] + CCn1cc[n+](C)c1.N#C[B-](C#N)(C#N)C#N",
    "Readout": "activity coefficient",
    "Readout Value": 0.97
  },
  {
    "Compound": "C=CCCCC [hex-1-ene] + CCn1cc[n+](C)c1.N#C[B-](C#N)(C#N)C#N",
    "Readout": "activity coefficient",
    "Readout Value": 8.39
  },
  {
    "Compound": "CCCO [propan-1-ol] + CCn1cc[n+](C)c1.N#C[B-](C#N)(C#N)C#N",
    "Readout": "activity coefficient",
    "Readout Value": 1.74
  },
  {
    "Compound": "CCO [ethanol] + CCn1cc[n+](C)c1.N#C[B-](C#N)(C#N)C#N",
    "Readout": "activity coefficient",
    "Readout Value": 1.37
  },
  {
    "Compound": "C#CCCCCC [1-heptyne] + CCn1cc[n+](C)c1.N#C[B-](C#N)(C#N)C#N",
    "Readout": "activity coefficient",
    "Readout Value": 5.97
  }
]

Reported activity coefficient of C#CCCCC [1-hexyne] + CCn1cc[n+](C)c1.N#C[B-](C#N)(C#N)C#N : 3.92

The compound C=CCCCCCCCC [1-decene] + CCn1cc[n+](C)c1.N#C[B-](C#N)(C#N)C#N showed activity coefficient equal to 51.5

---

- Assay Overview: activity coefficient (dimensionless); of the first substance listed, at infinite dilution; xn = mol fraction of the nth substance listed
- Experimental Context: 343.4 K; 101.3 kPa; Liquid; Chromatography; x1 = 0
compounds and their reported activity coefficient

Reported activity coefficient of CCCCCCC [heptane] + CCn1cc[n+](C)c1.N#C[B-](C#N)(C#N)C#N : 19.9

Reported activity coefficient for CCCCCC [hexane] + CCn1cc[n+](C)c1.N#C[B-](C#N)(C#N)C#N was 10.3
